The reported numbers originate from PubChem BioAssay (NCI).

- Test system: UACC-62 melanoma
- assay.info: NCI tumour cell line growth inhibition, 48 h
measurement.kind: GI50

Completed entries (count: 3):
[
  {
    "smiles.repr": "COc1cc2c(cc1Nc1nc(Nc3ccsc3C(N)=O)c3cc[nH]c3n1)N(C(=O)CN(C)C)CCC2(C)C",
    "GI50": "1.77 µM"
  },
  {
    "smiles.repr": "COc1ccc(Cn2cc3c(c2-c2ccc(OC)cc2)CCc2cnoc2-3)cc1",
    "GI50": "0.547 µM"
  },
  {
    "smiles.repr": "O=C1/C(=C/c2ccc(Cl)cc2)N=C(c2ccccc2)N1CCc1cccs1",
    "GI50": "13.8 µM"
  }
]

Ask | Name the reported GI50 value associated with the molecule COc1cc(O)c(C(=O)/C=C/c2ccc(O)cc2)c(O)c1[C@@H]1C[C@H](CCc2ccc(O)cc2)O[C@H](c2ccc(O)cc2)C1
Reply | 3.38 µM

Ask | Please give the result for CC(=O)O[C@]1(C(C)=O)CC[C@H]2[C@@H]3C=C(C)C4=CC(=O)CC[C@]4(C)[C@H]3CC[C@@]21C too.
Reply | > 71.8 µM

Ask | Please give the result for O=C(NCc1ccc(Cn2c(=O)sn(-c3ccccc3)c2=O)cc1)OCc1ccc2c(Br)cc(Br)c(O)c2n1 too.
Reply | 1.03 µM

Ask | Please give the result for O=C(Nc1ccc2ncnc(Nc3ccc(Oc4cccc(F)c4)c(Cl)c3)c2c1)c1ccc(CNCCO)cc1 too.
Reply | 1.7 µM

Ask | Please give the result for COC(=O)C1=C(C)NC(C)=C(C(=O)OC)C1/C=C(Cl)/C=C/c1ccccc1 too.
Reply | 16.1 µM

Ask | Please give the result for CO/N=C(\C)COc1ccc2c(=O)c(-c3ccccc3)coc2c1 too.
Reply | 26.3 µM

* * *

Each record here notes measured TGI.
- System: UO-31 renal
- assay.info: NCI tumour cell line growth inhibition, 48 h

Completed entries (count: 2):
[
  {
    "compound": "COC(=O)C1=C(C)NC(C)=C(C(=O)OC)C1/C=C(Cl)/C=C/c1ccccc1",
    "TGI": "> 100 µM"
  },
  {
    "compound": "CN1C(=O)[C@@H]2[C@@H]3c4ccccc4N(S(=O)(=O)C(F)(F)F)[C@@H]3c3[nH]c4ccccc4c3[C@@H]2C1=O",
    "TGI": "> 100 µM"
  }
]

Ask | Name the reported TGI value associated with the compound COc1cc(O)c(C(=O)/C=C/c2ccc(O)cc2)c(O)c1[C@@H]1C[C@H](CCc2ccc(O)cc2)O[C@H](c2ccc(O)cc2)C1
Reply | 14.1 µM

Ask | Please give the result for CCCCCCCCCCCCCP(=O)(O)OCC too.
Reply | > 100 µM

Ask | Please give the result for COc1cc2c3c(c1OC)-c1c(ccc4c1OCO4)CC3(C#N)N(C(=O)c1ccccc1)CC2 (centres undefined) too.
Reply | > 100 µM

Ask | Please give the result for Brc1ccc2c([C@H]3CN[C@@H](c4c[nH]c5cc(Br)ccc45)CN3)c[nH]c2c1 too.
Reply | 13.8 µM

Ask | Please give the result for COc1cc(COC(=O)N(CC(=O)O)c2ccccc2)c([N+](=O)[O-])cc1OC too.
Reply | > 100 µM

Ask | Please give the result for N#Cc1c(N)sc2c1-c1ccccc1OC2 too.
Reply | 70 µM

Ask | Please give the result for C=C(Br)N(CC)CC too.
Reply | > 100 µM
